- assay-comment: Sulfation kinetics and rate in pooled human liver cytosols
- Type: in vitro ADME
- condition-description: human, pooled human liver cytosols (HLC), pH 7.4
reported-metric: microsomal CLint (µL/min/mg)

{"molecule": "C[C@]12CC[C@H](O)CC1=CC[C@@H]1[C@@H]2CC[C@]2(C)C(=O)CC[C@@H]12 [DHEA, dehydroepiandrosterone]", "reported-metric": "microsomal CLint", "unit-text": "µL/min/mg", "experimental-result": 48.2}

* * *

- Tested on: SULT2A1 (sulfation)
- assay-comment: Sulfation kinetics and rate in pooled human liver cytosols
- Format: in vitro ADME
- condition-description: human, pooled human liver cytosols (HLC), pH 7.4, Km, sulfation by HLC
reported-metric: Km (µM)

{"molecule": "C[C@]12CC[C@H](O)CC1=CC[C@@H]1[C@@H]2CC[C@]2(C)C(=O)CC[C@@H]12 [DHEA, dehydroepiandrosterone]", "reported-metric": "Km", "experimental-result": 1.08}

* * *

- system: SULT2A1 (Homo sapiens)
- Sequence (Q06520 whole entry): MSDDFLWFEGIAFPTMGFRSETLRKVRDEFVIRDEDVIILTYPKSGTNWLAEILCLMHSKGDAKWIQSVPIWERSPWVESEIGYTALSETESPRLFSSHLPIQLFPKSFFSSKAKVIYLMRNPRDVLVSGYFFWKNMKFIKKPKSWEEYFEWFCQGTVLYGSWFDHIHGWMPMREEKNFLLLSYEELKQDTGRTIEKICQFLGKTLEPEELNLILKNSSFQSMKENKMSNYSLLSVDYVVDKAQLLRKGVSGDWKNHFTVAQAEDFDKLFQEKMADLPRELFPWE
- assay-comment: Sulfation of AB, DHEA and bufadienolides by recombinant human SULT2A1
- Assay type: in vitro ADME
- condition-description: human, recombinant human SULT2A1 (rhSULT2A1), pH 7.4
reported-metric: microsomal CLint (µL/min/mg)

{"compound": "C[C@]12CC[C@H](O)CC1=CC[C@@H]1[C@@H]2CC[C@]2(C)C(=O)CC[C@@H]12 [DHEA, dehydroepiandrosterone]", "reported-metric": "microsomal CLint", "unit-text": "µL/min/mg", "experimental-result": 2940}
